molecular target: alpha-glucosidase (Saccharomyces cerevisiae); construct: gene MAL12; commercial preparation from Sigma-Aldrich; experiment: p-nitrophenol release, absorbance […] nm; type: biochemical; conditions: p-nitrophenyl alpha-D-glucopyranoside 5 mM stock (20 μL), 100 mM phosphate pH 6.8, 37 °C, 15 min preincubation
PROPERTY: ** IC50 (µg/mL)

Examples with answers:
- COMPOUND_STRUCTURE: "Nc1ccc(N2c3[nH]nc(-c4ccc(Cl)cc4)c3SC23CCCCC3)cc1"
  MEAS_VALUE: 52.47
- COMPOUND_STRUCTURE: "Nc1ccc(N2C(=O)C(=Cc3ccc(Cl)cc3)SC23CCCCC3)cc1"
  MEAS_VALUE: 114.45
- COMPOUND_STRUCTURE: "N#Cc1c(-c2ccc(Cl)cc2)c2c([nH]c1=O)N(c1ccc(N)cc1)C1(CCCCC1)S2"
  MEAS_VALUE: 117.36

I = CCOC(=O)Cn1c2c(c(-c3ccc(Cl)cc3)c(C#N)c1=O)SC1(CCCCC1)N2c1ccc(N)cc1
II = Nc1ccc(N2C(=O)CSC23CCCCC3)cc1
III = N#Cc1c(N)nc2c(c1-c1ccc(Cl)cc1)SC1(CCCCC1)N2c1ccc(N)cc1
IV = NN=C1CSC2(CCCCC2)N1c1ccc(N)cc1
Query: Arrange the 4 compounds by rising ** IC50, starting with the smallest. In plain terms: list the labels in the order you were asked to.
Response: III, II, IV, I
(III: 63.6 µg/mL, II: 120.22 µg/mL, IV: 363.67 µg/mL, I: 570.4 µg/mL)

###

target: alpha-amylase (α–amylase); construct: commercial preparation from Sigma-Aldrich; assay: DNS colorimetric assay; type: biochemical; conditions: starch 0.5%, 20 mM phosphate pH 6.9, 25 °C, 10 min preincubation
PROPERTY: ** IC50 (µg/mL)

P = Nc1ccc(N2C(=O)C(=Cc3ccc(Cl)cc3)SC23CCCCC3)cc1
Q = NN=C1CSC2(CCCCC2)N1c1ccc(N)cc1
Query: When P and Q are compared, which has the higher number for ** IC50? Write down the label of the entry you select.
Response: Q
(Q: 421.42 µg/mL, P: 199.01 µg/mL)

P = N#Cc1c(-c2ccc(Cl)cc2)c2c(n(CCO)c1=O)N(c1ccc(N)cc1)C1(CCCCC1)S2
Q = Nc1ccc(N2c3[nH]nc(-c4ccc(Cl)cc4)c3SC23CCCCC3)cc1
R = N#Cc1c(N)nc2c(c1-c1ccc(Cl)cc1)SC1(CCCCC1)N2c1ccc(N)cc1
Query: List items by ** IC50 in falling order. Write the labels in rank order as requested.
Response: P, R, Q
(P: 271.3 µg/mL, R: 94.9 µg/mL, Q: 58.85 µg/mL)

###

target: alpha-amylase (α–amylase); construct: commercial preparation from Sigma-Aldrich; experiment: DNS colorimetric assay; assay type: biochemical; conditions: starch 0.5%, 20 mM phosphate pH 6.9, 25 °C, 10 min preincubation
PROPERTY: ** IC50 (µg/mL)

- COMPOUND_STRUCTURE: "Nc1ccc(N2C(=O)CSC23CCCCC3)cc1"
  ** IC50 / µg/mL: 297.8
- COMPOUND_STRUCTURE: "N#Cc1c(-c2ccc(Cl)cc2)c2c([nH]c1=O)N(c1ccc(N)cc1)C1(CCCCC1)S2"
  ** IC50 / µg/mL: 239.37
